- Tested on: H4
- EXPERIMENT NOTES: Luminescence Cell-Based Dose Response HTS to Identify Activators of 5'UTR Stem-Loop Driven Prion Protein mRNA Translation in H4 Neuroglioblastoma Cells. [Related pubchem assays: 1829 (Project Summary), 1814 (Primary HTS)]
- Format: functional
- EXPERIMENTAL CONTEXT: Homo sapiens
The source made the active and inactive calls. No stated cut-off is given here; in the data, actives have a measured EC50 and inactives only a lower limit.
Exercise: state measured EC50 for each of the molecules provided.

Lookup: Recall and state the measured EC50 for CCOC(=O)C(=Cc1ccc(OCc2ccc([N+](=O)[O-])cc2)c(OC)c1)C(=O)OCC .
Found: 0.246 µM (active)

Lookup: Recall and state the measured EC50 for CCc1cc(/C=N/C2CCCCC2)c(O)s1 .
Found: > 120 µM (not active)

Lookup: Recall and state the measured EC50 for COc1ccc2o/c(=N\O)c(C(=O)Nc3ccc(C)cc3)cc2c1 .
Found: 15.2 µM (active)

Lookup: Recall and state the measured EC50 for O=S(=O)(NC(=NC(=S)Nc1ccccc1)c1ccccc1)c1ccc(Cl)cc1 .
Found: 63.2 µM (active)

Lookup: Recall and state the measured EC50 for N#CC1=C2C=Cc3ccccc3N2CCCC1=O .
Found: 21 µM (active)

Lookup: Recall and state the measured EC50 for O=C(COc1ccc(Cl)cc1Cl)NC(=O)N1CCCCC1 .
Found: 92.5 µM (active)

Lookup: Recall and state the measured EC50 for Cc1csc2nc(CCNS(=O)(=O)c3cccs3)cn12 .
Found: 96.8 µM (active)
